# target.entity: ATP-binding cassette sub-family B member 6 (Homo sapiens) (UniProt Q9NP58)
# Sequence (Q9NP58 whole entry, looked up): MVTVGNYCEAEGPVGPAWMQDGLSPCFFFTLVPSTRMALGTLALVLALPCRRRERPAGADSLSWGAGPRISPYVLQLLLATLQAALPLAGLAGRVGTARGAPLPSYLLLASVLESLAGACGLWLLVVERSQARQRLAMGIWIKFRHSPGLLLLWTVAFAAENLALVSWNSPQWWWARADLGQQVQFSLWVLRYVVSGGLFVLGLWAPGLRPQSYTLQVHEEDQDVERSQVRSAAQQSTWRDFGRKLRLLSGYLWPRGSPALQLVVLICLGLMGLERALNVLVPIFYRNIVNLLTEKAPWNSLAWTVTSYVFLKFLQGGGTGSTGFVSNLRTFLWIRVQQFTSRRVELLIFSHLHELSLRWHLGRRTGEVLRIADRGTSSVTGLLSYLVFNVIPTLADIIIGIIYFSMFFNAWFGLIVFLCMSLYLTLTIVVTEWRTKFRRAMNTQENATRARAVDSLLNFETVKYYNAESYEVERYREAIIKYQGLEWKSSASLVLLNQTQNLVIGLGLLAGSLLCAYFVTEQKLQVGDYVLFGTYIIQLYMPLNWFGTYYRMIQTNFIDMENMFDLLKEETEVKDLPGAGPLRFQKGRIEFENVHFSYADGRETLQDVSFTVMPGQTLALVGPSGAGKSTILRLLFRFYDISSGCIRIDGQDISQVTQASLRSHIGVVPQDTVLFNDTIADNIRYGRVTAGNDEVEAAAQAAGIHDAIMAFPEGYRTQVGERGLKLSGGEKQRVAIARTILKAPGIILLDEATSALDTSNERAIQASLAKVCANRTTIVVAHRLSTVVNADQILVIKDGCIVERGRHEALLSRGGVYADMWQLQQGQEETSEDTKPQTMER
# assay.details: ABCB6 transporter inhibitors, pilot screen, K562-ABCB6 cells, flow cytometry, validation set (AID 588550);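 note: 0% = DMSO wells and 100% = benzethonium chloride 70 µM positive control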
# cond: K562-ABCB6 porphyrin accumulation, 1 h, at 10 µM, stronger effect = higher value
Peptide text beside a SMILES is read from it.
// values below are reported inhibition
Give your result in % as a bare value.

# example entries with known answers
| compound | endpoint.value |
| --- | --- |
| NCCc1ccc(O)cc1 | -2 |
| CCNC(=S)N(C)CCc1cc2c(c(OC)c1C=C1C(=O)N(C)C(=O)N(C)C1=O)OCO2 | -16 |
| COc1ccc2c3c([nH]c2c1)C(C)=NCC3 | -229 |

Incoming: Provide one value: measured inhibition of Cc1nc2ccccc2c(=O)n1-c1ccc(C(=O)O)cc1
Outgoing: -3

Incoming: Provide one value: measured inhibition of c1ccc(Cn2ccnc2)cc1
Outgoing: 9

Incoming: Provide one value: measured inhibition of COc1ccc(OC)c(C(O)C(C)N)c1 (stereo not given)
Outgoing: 10

Incoming: Provide one value: measured inhibition of CC(C)[N+](C)(CCC(C(N)=O)(c1ccccc1)c1ccccc1)C(C)C
Outgoing: 21

Incoming: Provide one value: measured inhibition of CCNC(=O)[C@H]1O[C@@H](n2cnc3c(N)ncnc32)[C@H](O)[C@@H]1O
Outgoing: 11

Incoming: Provide one value: measured inhibition of CC(C)[C@@]1(NC(=O)[C@@H]2C[C@@H]3c4cccc5[nH]cc(c45)C[C@H]3N(C)C2)O[C@@]2(O)[C@@H]3CCCN3C(=O)[C@H](Cc3ccccc3)N2C1=O
Outgoing: 9

Incoming: Provide one value: measured inhibition of CC(C)C[C@H](NC(=O)[C@@H]1CCCN1C(=O)[C@@H](N)Cc1ccc(O)cc1)C(=O)NCC(N)=O (H-YPLG-NH2)
Outgoing: 7

Reference source: PubChem BioAssay
